Reference source: patent US20250304690A1

target: T1, CD3 on Jurkat cells and on human T cells (human, UniProt P07766 23-207); assay: flow cytometry on Jurkat cells
T1 construct: whole, on cells; also called CD3 end; CD3 antigen
T1 sequence (P07766 23-207): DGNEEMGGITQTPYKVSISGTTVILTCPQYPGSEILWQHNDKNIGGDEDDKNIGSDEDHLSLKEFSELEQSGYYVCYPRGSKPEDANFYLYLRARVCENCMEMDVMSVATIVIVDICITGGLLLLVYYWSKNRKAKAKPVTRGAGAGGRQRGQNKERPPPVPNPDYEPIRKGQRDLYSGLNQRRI
Observable: pEC50
In plain terms, pEC50 is the concentration in mol/L turned into minus its base-10 logarithm.

Below are worked cases with known answers.
>>> result_number("CD3 Ab14 (antibody, human IgG1, kappa, V domains shown, also called humanized anti-CD3 monoclonal antibody) VH: EVQLVESGGGLVQPGGSLRLSCAASGFTFNTYAMNWVRQAPGKGLEWVARIRSKYNNYATYYADSVKDRFTISRDDSKNILYLQMNSLKTEDTAMYYCVRHGNFGNSYVSWFAYWGQGTLVTVSA VL: QAVVTQEPSLTVSPGGTVTLTCRSSTGAVTTSNYANWVQQKPGQAPRGLIGGTNKRAPWVPARFSGSLLGDKAALTLSGAQTEDEAEYYCALWYSNLWVFGGGTKLTVLR")
8.94
>>> result_number("CD3 Ab02 (antibody, human IgG1, kappa, V domains shown, also called humanized anti-CD3 monoclonal antibody) VH: EVQLVESGGGLVQPGGSLRLSCAASGFTFNTYAMNWVRQAPGKGLEWVARIRSKYNNYATYYADSVKDRFTISRDDSKNSLYLQMNSLKTEDTAVYYCVRHGNFGNSYVSWFAYWGQGTLVTVSA VL: QAVVTQEPSLTVSPGGTVTLTCRSSTGAVTTSNYANWVQQKPGQAPRGLIGGTNKRAPWTPARFSGSLLGGKAALTLSGAQTEDEAEYYCALWYSNLWVFGGGTKLTVLR")
8.58
>>> result_number("CD3 Ab01 (antibody, human IgG1, kappa, V domains shown, also called humanized anti-CD3 monoclonal antibody) VH: EVQLVESGGGLVQPGGSLRLSCAASGFTFNTYAMNWVRQAPGKGLEWVARIRSKYNNYATYYADSVKDRFTISRDDSKNSLYLQMNSLKTEDTAVYYCVRHGNFGNSYVSWFAYWGQGTLVTVSA VL: QAVVTQEPSLTVSPGGTVTLTCRSSTGAVTTSNYANWVQQKPGQAPRGLIGGTNKRAPWTPARFSGSLLGGKAALTLSGAQPEDEAEYYCALWYSNLWVFGGGTKLTVLR")
8.48
>>> result_number("CD3 Ab08 (antibody, human IgG1, kappa, V domains shown, also called humanized anti-CD3 monoclonal antibody) VH: EVQLVESGGGLVQPGGSLRLSCAASGFTFNTYAMNWVRQAPGKGLEWVARIRSKYNNYATYYADSVKDRFTISRDDSKNILYLQMNSLKTEDTAVYYCVRHGNFGNSYVSWFAYWGQGTLVTVSA VL: QAVVTQEPSLTVSPGGTVTLTCRSSTGAVTTSNYANWVQQKPGQAPRGLIGGTNKRAPWTPARFSGSLLGGKAALTITGAQTEDEAEYYCALWYSNLWVFGGGTKLTVLR")
8.74

Okay, now this binder:
For CD3 Ab04 (antibody, human IgG1, kappa, V domains shown, also called humanized anti-CD3 monoclonal antibody) VH: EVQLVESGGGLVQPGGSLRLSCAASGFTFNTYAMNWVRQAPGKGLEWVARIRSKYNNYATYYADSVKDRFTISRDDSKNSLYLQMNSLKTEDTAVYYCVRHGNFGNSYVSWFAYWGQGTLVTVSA VL: QAVVTQEPSLTVSPGGTVTLTCRSSTGAVTTSNYANWVQQKPGQAPRGLIGGTNKRAPWVPARFSGSLLGDKAALTLSGAQTEDEAEYYCALWYSNLWVFGGGTKLTVLR , write its pEC50. 8.93
